- Test system: SR leukemia
- TEST_NAME: NCI-60 one-dose screen, 48 h (100 = growth as untreated, 0 = no growth, -100 = all killed)
- CONDITIONS: 10 µM unless noted
About 83,000 compounds went through this panel and 20% of them were active in at least one assay; those are over-represented in the sample as a whole.
REPORTED_ENDPOINT: growth (%)
State the answer as a number, implicitly in %.

Worked examples follow.
COMPOUND	SYSTEM_NAME	UNIT_OF_MEASUREMENT	NUMERIC_VALUE
COc1ccccc1/C=C/C(=O)CCC(=O)O	SR leukemia	%	89.1
COc1ccc2c(c1)N(Cc1ccc(Cl)cc1)CCC2N1CCCC1=O (stereo unspecified)	SR leukemia	%	34.2
Fc1cc(-c2cnc3nonc3n2)c(Cl)cc1Cl	SR leukemia	%	86.5
CO[C@H](C(=O)[C@@H](O)[C@@H](C)O)[C@@H]1Cc2cc3cc(O[C@H]4C[C@@H](O[C@H]5C[C@@H](O)[C@H](O)C(C)O5)[C@H](O)C(C)O4)c(C)c(O)c3c(O)c2C(=O)[C@H]1O[C@H]1C[C@@H](O[C@H]2C[C@@H](O[C@H]3C[C@](C)(O)C(=O)C(C)O3)[C@@H](O)C(C)O2)[C@H](O)C(C)O1 (stereo partly specified)	SR leukemia	%	8.44
CC(C)[C@@]12C[C@@H](OC(=O)[C@H]3CO3)[C@@](C)(O1)[C@@H]1CC[C@@H](C)[C@H]1[C@@H]2OC(=O)/C=C/c1ccccc1	SR leukemia	%	69.4

Suppose we examine the compound O=C(Nc1cccc(C2=NCCN2)c1)c1ccc(N=Nc2ccc(C(=O)Nc3cccc(C4=NCCN4)c3)cc2)cc1 ; what growth value has been reported?
87.5

Suppose we examine the compound CC(NC(=O)c1ccccc1)C(=O)Nc1ccccc1 (stereo unspecified) ; what growth value has been reported?
89.9

Suppose we examine the compound O=C(Nc1cccc(-n2ccc3c(NC(=O)c4ccccc4)nccc32)c1)c1ccc(N2CCOCC2)c(C(F)(F)F)c1 ; what growth value has been reported?
2.76

Suppose we examine the compound CNCCCn1c2c(c3ccc(Cl)cc3c1=O)C(=O)c1cc(OC)cnc1-2 ; what growth value has been reported?
-33.5

Suppose we examine the compound CCCCOC(=O)c1cc(O)c(O)c(O)c1 ; what growth value has been reported?
44.5

Suppose we examine the compound Cc1nn(-c2cccc(Cl)c2)c(C)c1N=Nc1ccc(Br)cc1 ; what growth value has been reported?
92.7

Suppose we examine the compound O=C1c2cccc3cccc(c23)C(=O)N1CCCCCCCCCCN1C(=O)c2cccc3cccc(c23)C1=O ; what growth value has been reported?
96.8

Suppose we examine the compound C[N+](C)(C)CC(=O)N/N=C\c1ccco1 ; what growth value has been reported?
81.2

---

// reported growth for each item listed
- System: HS 578T breast
- TEST_NAME: NCI-60 one-dose screen, 48 h (100 = growth as untreated, 0 = no growth, -100 = all killed)
- CONDITIONS: 10 µM unless noted
The panel holds about 83,000 compounds, 20% with a hit somewhere; the sample as a whole holds those more often.
State the answer as a number, implicitly in %.

COMPOUND	SYSTEM_NAME	growth (%)
CN1C(=O)N(C)C2C1NN=c1s/c(=C\c3ccc(C(F)(F)F)cc3)c(=O)n12 (stereo unspecified)	HS 578T breast	18.5
CC1=CCC2C1CC=C(C)C(CC[C@H]1[C@@](C)(O)CCC3OC(C)(C)[C@H](OC(=O)c4ccccc4)CC[C@@]31C)C2(C)C (stereo partly specified)	HS 578T breast	110
N/N=C(\C(=N\N)c1ccccc1)c1ccccc1	HS 578T breast	108
NC(N)=NC1CCCCC1	HS 578T breast	107

Notebook: pull reported growth for HS 578T breast, entry OC(COCc1ccccc1)COCc1ccccc1
122

Notebook: pull reported growth for HS 578T breast, entry CCCCCCCCOC(=O)C(C)OC(=O)OCCOCCOC(=O)OC(C)C(=O)OCCCCCCCC (stereo unspecified)
102

Notebook: pull reported growth for HS 578T breast, entry CCOC(=O)Cn1c(-c2nonc2NC(=O)c2ccccc2F)nc2ccccc21
73.1

Notebook: pull reported growth for HS 578T breast, entry CC(C)CC1NC(=O)C(CC(C)C)N(CO)C1=O (stereo unspecified)
106

Notebook: pull reported growth for HS 578T breast, entry COC(=O)CSc1ccc(Cl)cc1
108

Notebook: pull reported growth for HS 578T breast, entry Cc1cc(N)cc(C)c1-c1c(Br)cc(N)cc1Br
34.1

Notebook: pull reported growth for HS 578T breast, entry c1csc(-c2cnc3nonc3n2)c1
92.5

---

- System: ACHN renal
- TEST_NAME: NCI-60 one-dose screen, 48 h (100 = growth as untreated, 0 = no growth, -100 = all killed)
- CONDITIONS: 10 µM unless noted
About 83,000 compounds went through this panel and 20% of them were active in at least one assay; those are over-represented in the sample as a whole. The source made the active and inactive calls. Rule for the calls: active = growth percent below 10; inactive = the rest.
REPORTED_ENDPOINT: growth

Worked examples follow.
STRUCTURE_AS_SMILES	growth
C=C(C)[C@@H]1CC[C@]2(C(=O)NC(COC(=O)C(Cl)Cl)(COC(=O)C(Cl)Cl)COC(=O)C(Cl)Cl)CC[C@]3(C)[C@H](CC[C@@H]4[C@@]5(C)CC[C@H](OC(C)=O)C(C)(C)[C@@H]5CC[C@]43C)[C@@H]12	51.1% (inactive)
COc1ccc(-c2nn(C(=O)NCCN(C)C)cc2-c2ccncc2)cc1Cl	47.8% (inactive)

Turning now to a further molecule:
Suppose we examine the molecule Cc1c2c(cc3c1[nH]c1ccccc13)C=NCC2 ; what growth value has been reported?
96.9% (inactive)

---

- Tested on: SF-539 CNS
- TEST_NAME: NCI-60 one-dose screen, 48 h (100 = growth as untreated, 0 = no growth, -100 = all killed)
- CONDITIONS: 10 µM unless noted
Compounds without any hit were thinned out: in the full panel of roughly 83,000, 20% have a hit.
REPORTED_ENDPOINT: growth (%)
State the answer as a number, implicitly in %.

COMPOUND	UNIT_OF_MEASUREMENT	growth
CCOC(=O)c1ccc(NC(=O)CSC(N)=O)cc1	%	96.4

Suppose we examine the compound CN1C(=O)N(C)C2C1NN=c1s/c(=C\c3ccsc3)c(=O)n12 (stereo not drawn) ; what growth value has been reported?
40.2

Suppose we examine the compound Cc1ccncc1NC=O ; what growth value has been reported?
102

Suppose we examine the compound O=C(CSc1nnc(Cc2ccccc2Nc2c(Cl)cccc2Cl)n1-c1ccccc1)N1N=C(c2ccc3ccccc3c2)CC1c1ccc(Cl)cc1 (stereo not drawn) ; what growth value has been reported?
106

Suppose we examine the compound C=C(COC(C)=O)[C@H]1CC/C(C)=C/CC/C(C)=C/CC[C@@]2(C)O[C@H]2C1 ; what growth value has been reported?
114

Suppose we examine the compound CCc1c(C)c2ccc(O)c(-c3cc(-c4ccccc4)c(C#N)c(=O)[nH]3)c2oc1=O ; what growth value has been reported?
113

Suppose we examine the compound CCCCCCCC/C=C\CCCCCCCC(=O)OCCCCCC ; what growth value has been reported?
109

---

- Tested on: KM12 colon
- TEST_NAME: NCI-60 one-dose screen, 48 h (100 = growth as untreated, 0 = no growth, -100 = all killed)
- CONDITIONS: 10 µM unless noted
The panel holds about 83,000 compounds, 20% with a hit somewhere; the sample as a whole holds those more often.
REPORTED_ENDPOINT: growth (%)
State the answer as a number, implicitly in %.

COMPOUND	UNIT_OF_MEASUREMENT	growth
CCCCCCCCCCCCCCCCCC(=O)[O][Sn]([CH2]CCC)([CH2]CCC)[CH2]CCC	%	-96.2
CC(C)(C)c1ccc(C(=O)Nc2sc3cc(O)ccc3c2C(N)=O)cc1	%	34.6
C#C[C@]1(O)CC[C@H]2[C@@H]3CC=C4c5sc(-c6cccc(Br)c6)nc5CC[C@]4(C)[C@H]3CC[C@@]21C	%	63.8

Turning now to a further compound:
Suppose we examine the compound CCCCc1nc(Cl)c(C2CC(c3ccc(S(N)(=O)=O)cc3)=NN2c2cc(Cl)cc(Cl)c2)[nH]1 (stereo not drawn) ; what growth value has been reported?
32.1

---

- Test system: ACHN renal
- TEST_NAME: NCI-60 one-dose screen, 48 h (100 = growth as untreated, 0 = no growth, -100 = all killed)
- CONDITIONS: 10 µM unless noted
This is part of a sample that, as a whole, favours compounds with a hit. Of some 83,000 tested, about 20% had one in any assay.
REPORTED_ENDPOINT: growth (%)
State the answer as a number, implicitly in %.

Worked examples follow.
COMPOUND	SYSTEM_NAME	growth, %
O=S(=O)(Cc1ccc(Cl)cc1Cl)c1ccc(Cl)cc1	ACHN renal	55.7
COc1cc(CN2CCC(N3CCCC3=O)c3ccccc32)cc(OC)c1OC (configuration not stated)	ACHN renal	91.3
COc1cc(Cl)cc(-c2nn(C(=O)NCCN3CCOCC3)cc2-c2ccncc2)c1	ACHN renal	65.6
Clc1ccc(-c2cnc3c(-c4ccnc(N5CCNCC5)c4)cnn3c2)cc1	ACHN renal	-0.355
Cc1cccc2nc3ccccc3c(Nc3ccc(NS(C)(=O)=O)cc3)c12	ACHN renal	-27.1
COc1cc(CN(c2ccc(C)cc2)C2OC(=O)c3ccccc32)cc(OC)c1OC (configuration not stated)	ACHN renal	56.3
O=C1Nc2ccc(Cl)cc2/C1=C\c1c(-c2ccc(F)cc2)nc2ccccn12	ACHN renal	31.4
ClC1(Cl)C2CCCCCCC21 (configuration not stated)	ACHN renal	110

Turning now to a further compound:
Suppose we examine the compound O=C(O)c1cc2cc(OCc3ccccc3)ccc2[nH]1 ; what growth value has been reported?
98.7

Reference source for all entries: PubChem BioAssay (NCI)
